# Tested on: Musca domestica SNAIDM
# Assay Method Text: Topical toxicity to adult female SNAIDM (susceptible) houseflies, alone and with piperonyl butoxide
# Assay type: in vivo, Musca domestica L.
# Measurement Setup: Musca domestica; SNAIDM strain, topical, alone
Assay Endpoint: LD50

1. COc1ccc(C(Oc2ccc(Cl)cc2)C(Cl)(Cl)Cl)cc1 (stereo not drawn); 108 mg/kg
2. COc1ccc(OC(c2ccc(OC)cc2)C(Cl)(Cl)Cl)cc1 (stereo not drawn); 300 mg/kg
3. CCOc1ccc(C(Oc2ccc(OC)cc2)C(Cl)(Cl)Cl)cc1 (stereo not drawn); 45 mg/kg
4. COc1ccc(C(Oc2ccc(C)cc2)C(Cl)(Cl)Cl)cc1 (stereo not drawn); > 500 mg/kg
5. Clc1ccc(OC(c2ccc(Cl)cc2)C(Cl)(Cl)Cl)cc1 (stereo not drawn); 90 mg/kg
6. CCOc1ccc(C(Oc2ccc(C)cc2)C(Cl)(Cl)Cl)cc1 (stereo not drawn); 72.5 mg/kg
7. CCOc1ccc(OC(c2ccc(OCC)cc2)C(Cl)(Cl)Cl)cc1 (stereo not drawn); 27 mg/kg
8. Cc1ccc(OC(c2ccc(C)cc2)C(Cl)(Cl)Cl)cc1 (stereo not drawn); 265 mg/kg

Form: compound = CCOc1ccc(C(Oc2ccc(Cl)cc2)C(Cl)(Cl)Cl)cc1 (stereo not drawn) ; LD50 = 18.5 mg/kg
